The measured values listed here are drawn from PubChem BioAssay AID1159580.

- Assay Details: chemical genetic growth profiling, strain panel (AID 1159580);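 also: tested at 20 µM; growth read once vehicle control cultures reached saturation at 30 °C; 1 = growth at the plate median or of vehicle wells; lower values mean less growth of the strain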
- Reported Conditions: S. cerevisiae deletion strains, growth OD, locus YJL095W, strain BCK1, stronger effect = lower value
Among all 5,500 compounds or so, about 2,000 (36%) were called active. Inconclusive results (about 18%) are left out. The list shows a part of the results.
Kindly state normalized growth for each of the entries shown.
// no unit string in output, number only

Qu. Find the recorded normalized growth belonging to Nc1ccccc1SCc1c(Cl)cccc1Cl and report it.
Ans. 0.617

Qu. I have this molecule here, CCCCCCNC(=O)n1cc(F)c(=O)[nH]c1=O , and I need its recorded normalized growth.
Ans. 0.541

Qu. Look at this molecule and give its reported normalized growth. CSC1=NNC(c2nn(C)cc2Cl)S1 (configuration not stated)
Ans. 0.134

Qu. Which normalized growth is reported for this molecule? C=Cc1c(C)c2cc3nc(c4c5[nH]c(cc6nc(cc1[nH]2)C(C)=C6CC)c(C)c5C(=O)[C@@H]4C(=O)OC)[C@@H](CCC(=O)OC/C=C(\C)CCCC(C)CCCC(C)CCCC(C)C)[C@@H]3C (some centres not stated)
Ans. 0.978

Qu. Query (molecule): O=S(=O)(Nc1cccc2nsnc12)c1cc(Cl)sc1Cl ; field requested: normalized growth
Ans. 0.904

Qu. For Nc1nc2ccc(OC(F)(F)F)cc2s1 , what is its reported normalized growth?
Ans. 0.961

Qu. Given CC(=O)c1c(O)c(C)c(O)c2c1oc1c(C(C)=O)c(O)c(C)c(O)c12 , state its recorded normalized growth.
Ans. 0.909

Qu. Which normalized growth value is on record for CC1(C)C(C=C(Cl)Cl)C1C(=O)OC(C#N)c1cccc(Oc2ccccc2)c1 (configuration not stated) ?
Ans. 1.01

Qu. Look up normalized growth: CCOC(=O)c1c(C)cc(O)c(C)c1O
Ans. 0.936

Qu. Quick one: normalized growth of Cc1[nH]c(C)c(Cl)c(=O)c1Cl ?
Ans. 0.983

Qu. Suppose we examine the molecule CCOC(=O)CSC(=S)NCc1ccc(C)cc1 ; what normalized growth value has been reported?
Ans. 0.879

Qu. Can you look up the measured normalized growth of Cc1ccc2nc(-c3ccc(Cl)cc3)cn2c1 for me?
Ans. 0.948
